Experiment: Quantitative High-Throughput drug screen in 47 multiple myeloma cell lines against the NCATS MIPE library collection: U266_ATCC cell viability assay (AID 1919864); also: nearly all actives have a fitted effect of over 35% in size
Details: U266 myeloma viability, CellTiter-Glo ATP luminescence, 48 h; series mostly up to 45.8 µM
Results filed as inconclusive are left out. Activity calls are given as the source filed them. Calls follow the shape of the dose curve; as a rule, active = well fitted cell-killing curve with a large enough effect; inconclusive = small, poorly fitted or top-dose-only effect, or effect the other way; inactive = no such curve, though single readings can be large or run the other way. Non-standard residues stand in square brackets, D forms with d. Residues, ends and D or L forms follow the SMILES beside them. *: point of attachment. Nva = CCC[C@H](N)C(=O)O; Cbz = O=C(OCc1ccccc1)*
Choose one outcome from this list and give only that: active, inactive

Please state the recorded outcome for this molecule: CC(C)c1cnn2c(NCc3ccccc3)cc(NCCCCCCN)nc12
active

Can you look up the reported call for CCC[C@@H](C=O)NC(=O)[C@H](CC(C)C)NC(=O)[C@H](CC(C)C)NC(=O)OCc1ccccc1 (Cbz-Leu-Leu-[Nva]-aldehyde) for me?
active

Which result was noted for this molecule in the test: COc1cc(C[C@@H](CO)[C@H](CO)Cc2ccc(O)c(OC)c2)ccc1O
active

Each molecule tested received a call. Report the one for CC(=O)SCC(Cc1ccccc1)C(=O)NCC(=O)OCc1ccccc1 (stereo not drawn) .
active

Query: recorded result category for C=C(C)[C@@H]1CC[C@]2(C(=O)O)CC[C@]3(C)[C@H](CC[C@@H]4[C@@]5(C)CC[C@H](O)C(C)(C)[C@@H]5CC[C@]43C)[C@@H]12 in this test
inactive

Field: outcome | Entry: COC(=O)C1C2CC3c4[nH]c5cc(OC)ccc5c4CCN3CC2CC(OC(=O)c2cc(OC)c(OC)c(OC)c2)C1OC (stereo not drawn)
active

Which outcome was entered for the molecule CC(C(C)N1CC(=O)NC(=O)C1)N1CC(=O)NC(=O)C1 (stereo not drawn) in this test?
inactive

Test call, this molecule: C=Cc1c(C)c2cc3nc(cc4[nH]c(cc5nc(cc1[nH]2)C(C)=C5CCC(=O)O)c(CCC(=O)OC)c4C)[C@@]1(C)C3=CC=C(C(=O)OC)[C@H]1C(=O)OC
active
